Ref: the NIST ThermoML archive (doi:10.1016/j.jct.2015.05.014)

Procedure details: activity coefficient (dimensionless); of the first substance listed, at infinite dilution; xn = mol fraction of the nth substance listed
Condition context: 318.15 K; 100 kPa; Liquid; Chromatography; x1 = 0
Rule: activity coefficient below 10 gives TRUE. Equal to or above 10 gives FALSE.

Find out if reported activity coefficient for CCC(C)(C)OC [2-methoxy-2-methylbutane] + CC(O)C(=O)[O-].CC[N+]1(C)CCCC1 is less than 10
FALSE

Find out if reported activity coefficient for CCCCCC [hexane] + CC(O)C(=O)[O-].CC[N+]1(C)CCCC1 is less than 10
FALSE

Find out if reported activity coefficient for CCC(C)CC [3-methylpentane] + CC(O)C(=O)[O-].CC[N+]1(C)CCCC1 is less than 10
FALSE

Find out if reported activity coefficient for Cc1ccccc1C [1,2-dimethylbenzene] + CC(O)C(=O)[O-].CC[N+]1(C)CCCC1 is less than 10
TRUE
